Data provenance is ChEMBL document CHEMBL3259614.

experiment: AUC (0 to infinity) in Sprague-Dawley rat at 10 mg/kg, po; assay type: ADME, organism-based; parameters: time infinity, dose 10 mg/kg, route oral; conditions: plasma
quantity_kind: AUC(0-inf)

> print(dat)
                                chem.smiles        result
1  C[C@@H](N1CCn2nc(-c3ccc(C#N)nc3)nc2C1)[C@](O)(Cn1cncn1)c1ccc(F)cc1F  7910 ng·h/mL

Consider the additional compound presented here.
Query block: # input compound: C[C@@H](N1CCc2nc(-c3cncnc3)sc2C1)[C@](O)(Cn1cncn1)c1ccc(F)cc1F.O.O=S(=O)(O)O ; wanted: its AUC(0-inf)
Result block: 141 ng·h/mL
